Molecular target: T1, biotinylated cynomolgus GDF-15 (cynomolgus, UniProt G7PWZ3 197-308, biotinylated, sites not stated)
T1 construct: also called Cyno GDF-15
T1 sequence: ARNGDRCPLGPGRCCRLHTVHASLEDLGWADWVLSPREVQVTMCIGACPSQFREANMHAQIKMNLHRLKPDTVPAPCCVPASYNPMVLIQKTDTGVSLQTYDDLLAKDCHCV
Assay: HTRF binding assay, biotinylated antigen, titration of antibody
experimental readout: binding result

// returns reported binding result for input AB1170006 (antibody, V domains shown) VH: EVQLQQSGPELVKPGASVKIPCKASGYTFTDYNMDWVKQSHGKSLEWIGDINPNNGVTIYNQKFKGKATLTVDKSSSTAYMELRSLTSEDTAVFYCAREELTGNAMDYWGQGTSVTVSS VL: DIQMTQSPASLSVSVGETVTITCRASENIYSHLAWYQQKQGKSPQLLVYAATNLADGVPSRFSGSGSGTQYSLKINSLQSEDFGSYYCQHFWGTPWTFGGGTKLEIK
binds

// returns reported binding result for input AB1170019 (antibody, V domains shown) VH: EVQLQQSGPELVKPGASVKIPCKASGYTFTDYNMDWVKQSHGKSLEWIGDINPNNGGTFYNQKFKDKATLTVDKSSSTAYMELRSLTSEDTAVYYCAREEKLYFGLMDYWGQGTSVTVSS VL: DIQMTQSPASLSASVGETVTITCRASENIYSYLAWYQQKQGKSPQLLVYNAKTLAEGVPSRFSGSGSGIQFSLKINILQPEDFGNYYCQHQYGSPPTFGGGTKLEIK
binds

// returns reported binding result for input AB1170074 (antibody, V domains shown) VH: EVQLQQSGRELVKPGASVKMSCKASGYTFTNYVMHWVKQKPGQGLEWIGYINPHNDGTEYSEKFKGKATLTSDKSSSTAYMELSSLTSEDSAVYYCARWYYDGGYFAYWGQGTLVTVSA VL: DIVMTQSPATLSVTPGDRVSLSCRASQSISDYLHWYQQKSHESPRLLIKYASQSISGIPSRFSGSGSGSDFTLSINSVEPEDVGVYYCQNGHSFPLTFGAGTKLELK
binds

Source listed as patent US20220281965A1.
